Literature-derived pIC50 for ASK1 (Homo sapiens (Human)) follows.
pIC50: −log10 of the molar value.

Kindly give each listed record's pIC50.
1. CC(C)n1cnnc1-c1cccc(NC(=O)c2cc3ccccc3cc2F)n1
2. CC(C)n1nnnc1-c1cccc(NC(=O)c2cc3c(cc2F)CCN(C(=O)N2CCS(=O)(=O)CC2)C3)n1
3. CCN(C)C(=O)N1CCc2cc(F)c(C(=O)Nc3cccc(-n4nnnc4C(C)C)n3)cc2C1
4. CC(C)n1nnnc1-c1nc(NC(=O)c2cc(-c3cnn(C4CC4)c3)c(N3CCCCC3)cn2)cs1

["6.00 to 7.00", "7.00 to 8.00", "< 6.00", "7.00 to 8.00"]

====

Literature-derived IC50 for ASK1 (Homo sapiens (Human), UniProt Q99683) follows.

For orientation, consider the following solved cases.
CC1NCCc2cc(F)c(C(=O)Nc3cccc(-c4nnnn4C(C)C)n3)cc21 (centres unmarked); 100 to 1000 nM
CC(=O)OC[C@@H](C)n1nnnc1-c1cccc(NC(=O)c2cc3c(cc2F)CCN(C(=O)N(C)CC(F)(F)F)C3)n1; > 1000 nM
O=c1c2ccccc2sn1-c1cccc(-c2nncn2C2CC2)n1; 1000 to 10000 nM
COc1cc2c(cc1C(=O)Nc1cccc(-c3nnnn3[C@H](C)CO)n1)CN(C(=O)[C@](C)(O)C(F)(F)F)CC2; < 1.25 nM
Cc1cnc(C(=O)Nc2cccc(-c3nnnn3[C@H](C)CO)n2)cc1-c1cnn(C2CC2)c1; 1 to 10 nM
Nc1ccc2c(c1)CN(c1cccc(-c3nncn3C3CC3)n1)C2=O; < 200 nM
CC(C)n1cnnc1-c1cccc(NC(=O)c2cc3c(cc2F)CCN(C(=O)N(C)C)C3)n1; 1 to 10 nM

Return reported IC50. Input molecule: `Cc1cc(F)c(C(=O)Nc2cccc(-n3nnnc3C(C)C)n2)cc1-c1ccn(C(C)C)n1` > 1000 nM

====

pIC50: −log10 of the molar value.
Literature-derived pIC50 for ASK1 (Homo sapiens (Human)) follows.

For orientation, consider the following solved cases.
Cc1cnc(C(=O)Nc2cccc(-c3nnnn3C(C)C)n2)cc1-c1ccncc1; 7.00 to 8.00
Cc1cnc(C(=O)Nc2cccc(-c3nnnn3C(C)C)n2)cc1-c1cccnc1; 8.00 to 9.00
O=C1c2cc(-n3cc(C4CC4)nn3)ccc2CN1c1cccc(-c2nncn2C2CC2)n1; > 6.70

Kindly give each listed record's pIC50.
1. CC(=O)OC[C@H](C)n1nnnc1-c1cccc(NC(=O)c2cc(-n3cnc(C4CC4)c3)c(C)cc2F)n1
2. Cn1cnc(-c2ccc3c(c2)CN(c2cccc(-c4nncn4C4CC4)n2)C3=O)c1
3. C=CCCOC(=O)N1CCc2ccc(C(=O)Nc3cccc(-c4nncn4C(C)C)n3)cc2C1
4. Cc1cc(F)c(C(=O)Nc2cccc(-c3nnnn3[C@@H](C)CO)n2)cc1-n1cnc(C2CC2)c1
5. Cc1ncc(-c2cc(C(=O)Nc3cccc(-c4nnnn4C(C)C)n3)ncc2C)s1

1. 8.00 to 9.00
2. > 6.70
3. 7.00 to 8.00
4. 8.00 to 9.00
5. 8.00 to 9.00

====

Literature-derived IC50 for ASK1 (Homo sapiens (Human)) follows.

For orientation, consider the following solved cases.
CC(C)n1cnnc1-c1cccc(NC(=O)c2cc3c(cc2F)CCN(C(=O)N2CCOCC2)C3)n1; 10 to 100 nM
CCCCN(C)c1nc2cc(F)c(C(=O)Nc3cccc(-c4nnnn4C(C)C)n3)cc2s1; > 1000 nM
CC(C)n1nnnc1-c1cccc(NC(=O)c2cc3c(cc2F)CCN(C(=O)N2CCOCC2)C3)n1; 10 to 100 nM
O=C1c2cc(-c3cccnc3)c(OC3CCCC3)cc2CN1c1cccc(-c2nncn2C2CC2)n1; < 200 nM
COc1cc2c(cc1C(=O)Nc1cccc(-c3nnnn3C(C)C)n1)C(=O)N(C(C)C)C2; 100 to 1000 nM

Kindly give each listed record's IC50.
1. Cc1cc(F)c(C(=O)Nc2cccc(-c3nncn3C(C)C)n2)cc1C1CC1NS(=O)(=O)C1CC1 (centres unmarked)
2. CC(C)n1nnnc1-c1cccc(NC(=O)c2ccc3c(c2)CNC3)n1
3. CC(C)n1nnnc1-c1cccc(NC(=O)c2cc3c(cc2F)CCN(C(=O)OCc2ccccc2)C3)n1

1: 1 to 10 nM; 2: > 1000 nM; 3: 10 to 100 nM

====

Literature-derived pIC50 for ASK1 (Homo sapiens (Human)) follows.
pIC50: −log10 of the molar value.

O=C1c2ccc(NC(=O)C3(c4ccccc4)CC3)cc2CN1c1cccc(-c2nncn2C2CC2)n1; 6.00 to 6.70

Kindly give each listed record's pIC50.
1. Cc1cnc(C(=O)Nc2cccc(-c3nnnn3C(C)C)n2)cc1-c1ccn(C(C)C)n1
2. COc1cc2c(cc1C(=O)Nc1cccc(-c3nnnn3[C@H](C)CO)n1)CN(C(=O)OC1CCOC1)CC2 (stereo partly shown)
3. CCCCN(C)c1nc2cc(F)c(C(=O)Nc3cccc(-c4nncn4C(C)C)n3)cc2s1
4. Cc1cc2c(cc1-c1cnn(CC3CC3)c1)C(=O)N(c1cccc(-c3nncn3C(C)C)n1)CO2

1: 7.00 to 8.00; 2: 8.00 to 8.90; 3: 8.00 to 9.00; 4: 8.36

Kindly give each listed record's pIC50.
1. CC(C)n1nnnc1-c1cccc(NC(=O)c2cc3sc(N(C)C)nc3cn2)n1
2. C[C@H](CO)n1nnnc1-c1cccc(NC(=O)c2cc3c(cn2)CCN(C(=O)OCC(C)(C)C)C3)n1
3. CNc1nc2cc(F)c(C(=O)Nc3cccc(-c4nncn4C(C)C)n3)cc2s1
4. Cc1cc(F)c(C(=O)Nc2cccc(-c3nnnn3C(C)C)n2)cc1-c1cnn(C(F)(F)F)c1
5. CC(C)n1cnnc1-c1cccc(NC(=O)c2ccc(-c3ccccc3)[nH]2)n1
6. O=C1c2cc(-c3cncc(F)c3)ccc2CN1c1cccc(-c2nncn2C2CC2)n1
7. Cc1cc(F)c(C(=O)Nc2cccc(-c3nnnn3C(C)C)n2)cc1-c1ccn(C(C)C)n1
8. C[C@@H]1COc2c(NC(=O)c3cc(-n4cnc(C5CC5)c4)ccn3)cccc2-c2nncn21

1. 7.00 to 8.00
2. 8.00 to 9.00
3. 8.00 to 9.00
4. 7.00 to 8.00
5. 8.24
6. 6.00 to 6.70
7. 7.00 to 8.00
8. 8.27

====

Literature-derived pIC50 for ASK1 (Homo sapiens (Human), UniProt Q99683) follows.
pIC50: −log10 of the molar value.

For orientation, consider the following solved cases.
Cc1cc(F)c(C(=O)Nc2cccc(-c3nncn3C(C)C)n2)cc1C1CC1NC(=O)OCC(F)(F)F (stereo not shown); 8.00 to 9.00
O=C1c2sc(C3CCOCC3)cc2CN1c1cccc(-c2nncn2C2CC2)n1; 6.00 to 6.70
O=C1c2cc(-c3ccncc3)ccc2CN1c1cccc(-c2nncn2C2CC2)n1; > 6.70
COc1nc2ccc(C(=O)Nc3cccc(-c4nncn4C(C)C)n3)cc2nc1NC(C)C; 6.00 to 7.00
CC(C)n1nnnc1-c1cccc(NC(=O)c2cc3c(cc2F)CCN(C(=O)NC2CCCC2)C3)n1; 7.00 to 8.00
COc1cc2c(cc1C(=O)Nc1cccc(-c3nnnn3[C@H](C)CO)n1)CN(C(=O)C1(O)CC1)CC2; > 8.90
CC(C)Nc1nc2cc(C(=O)Nc3cccc(-c4nnnn4[C@@H](C)CO)n3)c(F)cc2nc1OC(C)C; < 6.00
Cc1cnc(C(=O)Nc2cccc(-n3nnnc3C(C)C)n2)cc1-c1cnn(C(C)(C)C)c1; 7.00 to 8.00

Kindly give each listed record's pIC50.
1. CC(C)n1cnnc1-c1cccc(NC(=O)c2ccc3ccc(N4CCOCC4)nc3c2)n1
2. C[C@H](CO)n1nnnc1-c1cccc(NC(=O)c2cc3c(cc2F)CCN(c2ccccn2)C3)n1
3. CC(C)n1nnnc1-c1cccc(NC(=O)c2cc3cc(Br)ccc3cn2)n1

1. 6.00 to 7.00
2. 8.00 to 8.90
3. < 6.00

====

Literature-derived IC50 for ASK1 (Homo sapiens (Human), UniProt Q99683) follows.

For orientation, consider the following solved cases.
CC(C)n1cnnc1-c1cccc(NC(=O)c2ccc3c(c2)CN(C(=O)OCc2ccccc2)CC3)n1; 0.01 to 0.1 µM
CC(C)n1cnnc1-c1cccc(NC(=O)c2cc3sc(N4CCOCC4)nc3cc2F)n1; 0.001 to 0.01 µM

Kindly give each listed record's IC50.
1. Cc1cc(F)c(C(=O)Nc2cccc(-c3nnnn3C(C)C)n2)cc1-n1cnc(C2CC2)c1
2. C[C@H]1COc2c(NC(=O)c3cc(-n4cnc(C5CC5)c4)ccn3)cccc2-c2nncn21

["0.001 to 0.01 µM", "0.0057 µM"]

Kindly give each listed record's IC50.
1. CC(C)n1cnnc1-c1cccc(NC(=O)c2ccc3nc(N4CCC(C(C)(C)C)CC4)sc3c2)n1
2. CC(C)n1cnnc1-c1cccc(NC(=O)c2ccc3c(c2)CN(C(=O)NC2CCCC2)CC3)n1

1: 0.1 to 1 µM; 2: 0.01 to 0.1 µM
